Test system: RIVA
test summary: growth inhibition by drug alone (1 - RLU/untreated control) (fraction); higher = stronger inhibition
experimental context: 10 nM; time (day): 3; 177Lu-lilotomab satetraxetan 0 ug/ml
Where a name gives a salt, the structure may show the parent alone.
value type: growth inhibition by drug alone
# respond with the number and nothing more

Some solved cases for reference:
Query: Which value of growth inhibition by drug alone has been reported for `O=C(Cc1ccc(-c2ccc(OCCN3CCOCC3)cc2)cn1)NCc1ccccc1` in the records?
Result: 0.0653

Query: Then what about the molecule `C[C@]12CC[C@@H]3c4ccc(O)cc4CC[C@H]3[C@@H]1CCC2=O` ?
Result: -0.099

Query: Then what about the molecule `Cc1nc(-c2ccc(OCC(C)C)c(C#N)c2)sc1C(=O)O` ?
Result: 0.0707

Query: Then what about the molecule `CC(C)C[C@H](NC(=O)CNC(=O)c1cc(Cl)ccc1Cl)B(O)O` ?
Result: -0.217

Query: Then what about the molecule `O=C(/C=C/c1cccnc1)NCCCCC1CCN(C(=O)c2ccccc2)CC1` ?
Result: 0.983

Query: Then what about the molecule `Cc1cccc(-c2[nH]c(C(C)(C)C)nc2-c2ccc3nccnc3c2)n1` ?
Result: -0.0404

Query: Then what about the molecule `C=CC(=O)N1CCC[C@@H](n2nc(-c3ccc(Oc4ccccc4)cc3)c3c(N)ncnc32)C1` ?
Result: 0.676

Query: Then what about the molecule CNNCc1ccc(C(=O)NC(C)C)cc1 [Procarbazine hydrochloride (Matulane)] ?
Result: 0.0732

Here's the next entry for you.
Query: Which value of growth inhibition by drug alone has been reported for `O=C(Nc1ccccc1-c1cn2c(CN3CCNCC3)csc2n1)c1cnc2ccccc2n1` in the records?
Result: 0.0628

----------
Tested on: RIVA
test summary: growth inhibition by drug plus 177Lu-lilotomab satetraxetan (1 - RLU/untreated control) (fraction); higher = stronger inhibition
experimental context: 10 nM; time (day): 6; 177Lu-lilotomab satetraxetan 0.5 ug/ml
Parameter growth inhibition by drug plus 177Lu-lilotomab satetraxetan: see the listing below.
# respond with the number and nothing more

Query: Give the reported growth inhibition by drug plus 177Lu-lilotomab satetraxetan for `COc1c(C)cnc(Cn2cnc3c(Cl)nc(N)nc32)c1C` (system: RIVA).
Result: 0.607

Query: Then what about the molecule CCc1ccc(CCOc2ccc(CC3SC(=O)NC3=O)cc2)nc1 (centres undefined) [Pioglitazone (Actos)] ?
Result: 0.598

Query: Then what about the molecule `COc1cc(N2CCC(N3CCN(C)CC3)CC2)ccc1Nc1ncc(Cl)c(Nc2ccccc2S(=O)(=O)C(C)C)n1` ?
Result: 0.521

Query: Then what about the molecule Cc1ccc(-c2cc(C(F)(F)F)nn2-c2ccc(S(N)(=O)=O)cc2)cc1 [Celecoxib] ?
Result: 0.512

Query: Then what about the molecule CN1CCN(c2nc(C3=C(c4c[nH]c5ccccc45)C(=O)NC3=O)c3ccccc3n2)CC1 [Sotrastaurin (AEB071)] ?
Result: 0.628

Continuing:
Query: Give the reported growth inhibition by drug plus 177Lu-lilotomab satetraxetan for `O=C(NCCCNc1nc(Nc2cccc(NC(=O)N3CCCC3)c2)ncc1I)c1cccs1` (system: RIVA).
Result: 0.838

Query: Then what about the molecule O=c1c(O)c(-c2ccc(O)c(O)c2)oc2cc(O)cc(O)c12 [Quercetin (Sophoretin)] ?
Result: 0.619

Query: Then what about the molecule CC1=C(/C=C/C(C)=C/C=C/C(C)=C/C(=O)Nc2ccc(O)cc2)C(C)(C)CCC1 [Fenretinide] ?
Result: 0.583

Query: Then what about the molecule `COc1ncc(-c2ccc3nccc(-c4ccnnc4)c3c2)cc1NS(=O)(=O)c1ccc(F)cc1F` ?
Result: 0.961
